Test system: HT-29
Test: SRB colorimetric assay of cell growth and viability, HT-29
Assay type: cell-based, human
Conditions: 48 hours exposure; read-out: LC50 HT-29
Where a SMILES comes first, the peptide text is derived from it. Bridges are numbered along the chain shown (N, C = ends). [ ]: non-standard residue; d: D form. The star is where a group is joined. d(aIle) = CC[C@H](C)[C@@H](N)C(=O)O; d(aThr) = C[C@@H](O)[C@@H](N)C(=O)O; Hexanoyl(5-Me) = CC(C)CCCC(=O)*; Orn = NCCC[C@H](N)C(=O)O; Dhb = C/C=C(\N)C(=O)O
assay.endpoint: CC50 (µM)
Give bare numbers, in µM.

// worked examples, CC50 included
| compound | assay.endpoint | val |
| --- | --- | --- |
| C/C=C1\NC(=O)[C@H](Cc2ccccc2)NC(=O)[C@@H](C(C)C)NC(=O)[C@@H]([C@@H](C)CC)NC(=O)[C@H](NC(=O)[C@H](NC(=O)[C@H](CCCN)NC(=O)[C@H]2CCCN2C(=O)[C@H](NC(=O)[C@@H](NC(=O)[C@@H](NC(=O)[C@@H](CCC(=O)O)NC(=O)CCCC(C)C)[C@@H](C)O)C(C)C)C(C)C)[C@@H](C)CC)[C@@H](C)OC(=O)[C@H](C(C)C)NC1=O [Compound 39, [D-Glu^13]-KF] | CC50 | 3.87 |
| C/C=C1\NC(=O)[C@H](Cc2ccccc2)NC(=O)[C@@H](C(C)C)NC(=O)[C@@H]([C@@H](C)CC)NC(=O)[C@H](NC(=O)[C@H](NC(=O)[C@H](CCCCN)NC(=O)[C@H]2CCCN2C(=O)[C@H](NC(=O)[C@@H](NC(=O)[C@@H](NC(=O)[C@H](NC(=O)CC[C@@H](C)CC)C(C)C)[C@@H](C)O)C(C)C)C(C)C)[C@@H](C)CC)[C@@H](C)OC(=O)[C@H](C(C)C)NC1=O [Compound 30, [Lys^8, (4S)-MeHex^14]-KF] | CC50 | 0.517 |
| C/C=C1\NC(=O)[C@H](Cc2ccccc2)NC(=O)[C@@H](C(C)C)NC(=O)[C@@H]([C@@H](C)CC)NC(=O)[C@H](NC(=O)[C@H](NC(=O)[C@H](CCCN)NC(=O)[C@H]2CCCN2C(=O)[C@H](NC(=O)[C@@H](NC(=O)[C@H](CC(C)C)NC(=O)CCCC(C)C)C(C)C)C(C)C)[C@@H](C)CC)[C@@H](C)OC(=O)[C@H](C(C)C)NC1=O [Compound 54, [Leu^12, noD-Val^13]-KF] ({Hexanoyl(5-Me)}-LV[dV][dP][Orn][d(aIle)][d(aThr)][d(aIle)][dV]F[Dhb]V; ester 7-C) | CC50 | 6.55 |
| C/C=C1\NC(=O)[C@H](Cc2ccccc2)NC(=O)[C@@H](C(C)C)NC(=O)[C@@H]([C@@H](C)CC)NC(=O)[C@H](NC(=O)[C@H](NC(=O)[C@H](CCCN)NC(=O)[C@H]2CCCN2C(=O)[C@H](NC(=O)[C@@H](NC(=O)[C@@H](NC(=O)[C@H](NC(=O)CCCC(C)C)C(C)C)C(C)C)C(C)C)C(C)C)[C@@H](C)CC)[C@@H](C)OC(=O)[C@H](C(C)C)NC1=O [Compound 6, [Val^12]-KF] ({Hexanoyl(5-Me)}-[dV]VV[dV][dP][Orn][d(aIle)][d(aThr)][d(aIle)][dV]F[Dhb]V; ester 8-C) | CC50 | 0.485 |
| C/C=C1\NC(=O)[C@H](Cc2ccccc2)NC(=O)[C@@H](C(C)C)NC(=O)[C@@H]([C@@H](C)CC)NC(=O)[C@H](NC(=O)[C@H](NC(=O)[C@H](CCCN)NC(=O)[C@H]2CCCN2C(=O)[C@H](NC(=O)[C@@H](NC(=O)[C@@H](NC(=O)[C@H](NC(=O)c2ccccc2)C(C)C)[C@@H](C)O)C(C)C)C(C)C)[C@@H](C)CC)[C@@H](C)OC(=O)[C@H](C(C)C)NC1=O [Compound 20, [Bza^14]-KF] | CC50 | 3.88 |
| C/C=C1\NC(=O)[C@H](Cc2ccccc2)NC(=O)[C@@H](C(C)C)NC(=O)[C@@H]([C@@H](C)CC)NC(=O)[C@H](NC(=O)[C@H](NC(=O)[C@H](CCCN)NC(=O)[C@H]2CCCN2C(=O)[C@H](NC(=O)[C@@H](NC(=O)[C@@H](NC(=O)[C@H](NC(=O)CCCCC(C)=O)C(C)C)[C@@H](C)O)C(C)C)C(C)C)[C@@H](C)CC)[C@@H](C)OC(=O)[C@H](C(C)C)NC1=O [Compound 27, [6-OHep^14]-KF] | CC50 | 6.7 |

Hi team, please reply with CC50 for each item in this list.
1. C/C=C1\NC(=O)[C@H](Cc2ccccc2)NC(=O)[C@@H](C(C)C)NC(=O)[C@@H]([C@@H](C)CC)NC(=O)[C@H](NC(=O)[C@H](NC(=O)[C@H](CCCN)NC(=O)[C@H]2CCCN2C(=O)[C@H](NC(=O)[C@@H](NC(=O)CNC(=O)CCCC(C)C)C(C)C)C(C)C)[C@@H](C)CC)[C@@H](C)OC(=O)[C@H](C(C)C)NC1=O [Compound 53, [Gly^12, noD-Val^13]-KF] ({Hexanoyl(5-Me)}-GV[dV][dP][Orn][d(aIle)][d(aThr)][d(aIle)][dV]F[Dhb]V; ester 7-C)
2. C/C=C1\NC(=O)[C@H](Cc2ccccc2)NC(=O)[C@@H](C(C)C)NC(=O)[C@@H]([C@@H](C)CC)NC(=O)[C@H](NC(=O)[C@H](NC(=O)[C@H](CCCN)NC(=O)[C@H]2CCCN2C(=O)[C@H](NC(=O)[C@@H](NC(=O)[C@@H](NC(=O)[C@H](NC(=O)CCCCC(C)(F)F)C(C)C)[C@@H](C)O)C(C)C)C(C)C)[C@@H](C)CC)[C@@H](C)OC(=O)[C@H](C(C)C)NC1=O [Compound 28, [6,6-dFHep^14]-KF]

Resp:
1. 7.49
2. 3.63

Memo: C/C=C1\NC(=O)[C@H](Cc2ccccc2)NC(=O)[C@@H](C(C)C)NC(=O)[C@@H]([C@@H](C)CC)NC(=O)[C@H](NC(=O)[C@H](NC(=O)[C@H](CCCN)NC(=O)[C@H]2CCCN2C(=O)[C@H](NC(=O)CCCC(C)C)C(C)C)[C@@H](C)CC)[C@@H](C)OC(=O)[C@H](C(C)C)NC1=O [Compound 31, [noVal^11, noThr^12, noD-Val^13]-KF] ({Hexanoyl(5-Me)}-[dV][dP][Orn][d(aIle)][d(aThr)][d(aIle)][dV]F[Dhb]V; ester 5-C) , reported CC50: 8.49

----------
For each record, write down the corresponding GI50.
System: SK-MEL-28
Experiment: SRB colorimetric assay of cell growth and viability, SK-MEL-28
Assay type: cell-based, human
Settings: 48 hours exposure
One number for each entry, in nM.

| compound | GI50 [nM] |
| --- | --- |
| C/C=C1\NC(=O)[C@H](Cc2ccccc2)NC(=O)[C@@H](C(C)C)NC(=O)[C@@H]([C@@H](C)CC)NC(=O)[C@H](NC(=O)[C@H](NC(=O)[C@H](CCCN)NC(=O)[C@H]2CCCN2C(=O)[C@H](NC(=O)[C@@H](NC(=O)[C@@H](NC(=O)[C@H](NC(=O)c2ccc(C(F)(F)F)cc2)C(C)C)[C@@H](C)O)C(C)C)C(C)C)[C@@H](C)CC)[C@@H](C)OC(=O)[C@H](C(C)C)NC1=O [Compound 21, [p-CF3Bza^14]-KF] | 897 |

--- query ---
Memo: C/C=C1\NC(=O)[C@H](Cc2ccccc2)NC(=O)[C@@H](C(C)C)NC(=O)[C@@H](C(C)CC)NC(=O)[C@H](NC(=O)[C@H](NC(=O)[C@H](CCCN)NC(=O)[C@H]2CCCN2C(=O)[C@H](NC(=O)[C@@H](NC(=O)[C@@H](NC(=O)[C@H](NC(=O)CCC(C)CC)C(C)C)C(C)O)C(C)C)C(C)C)C(C)CC)C(C)OC(=O)[C@H](C(C)C)NC1=O (some centres unmarked) , reported GI50: 315

----------
Tested on: IGROV-ET
Assay: SRB colorimetric assay of cell growth and viability, IGROV-ET
Assay type: cell-based, human
Settings: 48 hours exposure
Where a SMILES comes first, the peptide text is derived from it. Bridges are numbered along the chain shown (N, C = ends). [ ]: non-standard residue; d: D form. The star is where a group is joined. d(aIle) = CC[C@H](C)[C@@H](N)C(=O)O; d(aThr) = C[C@@H](O)[C@@H](N)C(=O)O; Hexanoyl(5-Me) = CC(C)CCCC(=O)*; Orn = NCCC[C@H](N)C(=O)O; Dhb = C/C=C(\N)C(=O)O
assay.endpoint: GI50 (µM)
Give bare numbers, in µM.

Memo: C/C=C1\NC(=O)[C@H](Cc2ccccc2)NC(=O)[C@@H](C(C)C)NC(=O)[C@@H]([C@@H](C)CC)NC(=O)[C@H](NC(=O)[C@H](NC(=O)[C@H](CCCN)NC(=O)[C@H]2CCCN2C(=O)[C@H](NC(=O)[C@@H](NC(=O)[C@@H]2CCCN2C(=O)CCCC(C)C)C(C)C)C(C)C)[C@@H](C)CC)[C@@H](C)OC(=O)[C@H](C(C)C)NC1=O [Compound 55, [Pro^12, noD-Val^13]-KF] ({Hexanoyl(5-Me)}-PV[dV][dP][Orn][d(aIle)][d(aThr)][d(aIle)][dV]F[Dhb]V; ester 7-C) , reported GI50: 7.27

# credit: patent US20070117743A1
